Recorded GI50 by entry
tested on: SNB-19; experiment: NCI tumour cell line growth inhibition, 48 h
Calls of active or inactive are those of the source. Rule as the data show it: active = GI50 up to about 1.1 µM and inactive = higher.

Guide cases for GI50, answers given:
[
  {
    "MOLECULE": "O=[N+]([O-])c1cccc(C2=NN(c3ccccc3)C3c4ccccc4OCC23)c1 (centres undefined)",
    "GI50": "> 100 µM (inactive)"
  },
  {
    "MOLECULE": "N=C(N)N/N=C/c1c(-c2cccc([N+](=O)[O-])c2)nc2n1CCS2",
    "GI50": "13.8 µM (inactive)"
  },
  {
    "MOLECULE": "CS/C(=N/S(=O)(=O)c1ccc(Cl)cc1)NCCCN/C(=N\\S(=O)(=O)c1ccc(Cl)cc1)SC",
    "GI50": "80.7 µM (inactive)"
  }
]

Consider now this further molecule.
Entry CCCNC(=S)N/C=C1/C(=O)Oc2ccccc2C1=O , system SNB-19: what GI50 was measured? > 100 µM (inactive)

###

test system: SK-MEL-28; test: NCI tumour cell line growth inhibition, 48 h
Activity calls are given as the source filed them. Cut-off read from the data, not from the text of the source: active = GI50 up to about 1.1 µM and inactive = higher.
OBSERVED_PROPERTY: GI50

Guide cases for GI50, answers given:
[
  {
    "COMPOUND": "c1ccc(NN/N=N/c2ccc(-c3nc4ccccc4[nH]3)cc2)cc1",
    "RESULT": "35.8 µM (inactive)"
  },
  {
    "COMPOUND": "CC(=O)N1c2cc(/N=N/N(C)C)ccc2NC(=O)CC1C (stereo not drawn)",
    "RESULT": "> 100 µM (inactive)"
  },
  {
    "COMPOUND": "CC(C)CC(=O)NC(NC(C)C)(C(F)(F)F)C(F)(F)F",
    "RESULT": "> 100 µM (inactive)"
  }
]

Entry Cc1ccc(Nc2nc3ccccc3nc2NS(=O)(=O)c2ccc(N)cc2)cc1 , system SK-MEL-28: what GI50 was measured? 33.4 µM (inactive)

Do the same for Cc1ccc(C(O)c2cnc(C)n2Cc2ccccc2)cc1 (stereo not drawn) please > 100 µM (inactive)

Do the same for COc1cc2c(cc1Cl)[n+]([O-])c(C#N)c(N1CCN(c3ccc([N+](=O)[O-])cc3)CC1)[n+]2[O-] please 34.8 µM (inactive)

Do the same for O=C(O)C#CCO please > 100 µM (inactive)

Do the same for Cc1noc(NS(=O)(=O)c2ccc(NC(=O)c3ccc4[nH]c5ccccc5c(=O)c4c3)cc2)c1C please 35.4 µM (inactive)

Do the same for COc1ccc(Cc2nc3cc(C(F)(F)F)ccc3n2C[C@@H]2CCCN3CCCCC23)cc1 (stereo partly drawn) please 13 µM (inactive)

Do the same for C=CCC1(C)CCCCC1(O)C[S+]([O-])c1ccccc1 (stereo not drawn) please > 100 µM (inactive)

Do the same for Cn1c(=O)nc2n(CCO)c(-c3ccccc3)c(-c3ccccc3)nc-2c1=O please > 100 µM (inactive)

Do the same for CN(C)CCNC(=O)c1cccc2ccc(-c3ccc(F)cc3)nc12 please 7.06 µM (inactive)

Do the same for CN(C)CN1CSC(=S)N(CN(C)C)C1 please > 100 µM (inactive)

###

Recorded GI50 by entry
system: CCRF-CEM; assay: NCI tumour cell line growth inhibition, 48 h
Active and inactive are the calls of the source. No stated cut-off is given here; in the data, active = GI50 up to about 1.1 µM and inactive = higher.

Guide cases for GI50, answers given:
[
  {
    "COMPOUND": "CN1C(=O)c2cccc3cc([N+](=O)[O-])cc(c23)C1=O",
    "GI50": "> 10 µM (inactive)"
  },
  {
    "COMPOUND": "Oc1c2c(c(O)c3ccccc13)C1(N=N2)c2ccccc2Oc2ccccc21",
    "GI50": "3.2 µM (inactive)"
  },
  {
    "COMPOUND": "C=C1C(=O)O[C@H]2[C@@H](O)[C@H](C)CCC[C@]3(C)O[C@H]3CC[C@@]3(C)O[C@@H]3C[C@@H]12",
    "GI50": "1.58 µM (inactive)"
  },
  {
    "COMPOUND": "COc1ccc(/C=C2\\CCCCC2=O)cc1",
    "GI50": "> 100 µM (inactive)"
  },
  {
    "COMPOUND": "O=C(Nc1cccc(F)c1)c1cc2ccc(O)cc2o/c1=N\\c1ccccc1F",
    "GI50": "2.47 µM (inactive)"
  }
]

# GI50 lookup, item CC(=O)O[C@H]1CC[C@@]2(C)C(=CC[C@@H]3[C@@H]2CC[C@]2(C)c4nc(N)c(C#N)cc4C[C@@H]32)C1 14 µM (inactive)

Do the same for C[C@@H](c1ccccc1)N1CN(C(=O)OCc2ccccc2)C(C)(C)CC1=O please > 100 µM (inactive)

Do the same for COc1cc(O)cc2oc(-c3ccc(O)cc3)cc(=O)c12 please > 100 µM (inactive)

Do the same for C=C[C@@H](C)[C@]1(C(=O)OC)CCCC12OCCO2 please > 100 µM (inactive)

###

tested on: MDA-MB-231; assay: NCI tumour cell line growth inhibition, 48 h
Activity calls are given as the source filed them. No stated cut-off is given here; in the data, active = GI50 up to about 1.1 µM and inactive = higher.
OBSERVED_PROPERTY: GI50

Guide cases for GI50, answers given:
[
  {
    "COMPOUND": "Oc1c2c(c(O)c3ccccc13)C1(N=N2)c2ccccc2Oc2ccccc21",
    "OBSERVED_PROPERTY": "GI50",
    "RESULT": "13.9 µM (inactive)"
  },
  {
    "COMPOUND": "COC(=O)c1cn(CC(O)CCl)nn1 (stereo unspecified)",
    "OBSERVED_PROPERTY": "GI50",
    "RESULT": "> 100 µM (inactive)"
  },
  {
    "COMPOUND": "CNC1c2ccccc2C(=O)c2cc3c(cc21)OCCOCCOCCOCCO3 (stereo unspecified)",
    "OBSERVED_PROPERTY": "GI50",
    "RESULT": "82.2 µM (inactive)"
  },
  {
    "COMPOUND": "NS(=O)(=O)c1ccc(NC(=S)N/C=C2\\C(=O)Oc3ccccc3C2=O)cc1",
    "OBSERVED_PROPERTY": "GI50",
    "RESULT": "16 µM (inactive)"
  },
  {
    "COMPOUND": "CCOC(=O)/C1=C(\\C)N(Cc2ccccc2)C(=O)c2ccccc2C(=O)c2c(O)ccc(O)c21",
    "OBSERVED_PROPERTY": "GI50",
    "RESULT": "> 100 µM (inactive)"
  }
]

Consider now this further compound.
# GI50 lookup, item O=C(c1ccccc1Br)C(F)(F)F > 100 µM (inactive)

###

system: MCF7; assay: NCI tumour cell line growth inhibition, 48 h
Calls of active or inactive are those of the source. No stated cut-off is given here; in the data, active = GI50 up to about 1.1 µM and inactive = higher.
Choose one outcome from this list and give only that: active, inactive

The examples below pair each entry with its known result.
[
  {
    "COMPOUND": "C/C=C/C(C/C=C(\\C)CO[Si](C)(C)C(C)(C)C)O[Si](C)(C)C(C)(C)C (stereo unspecified)",
    "ASSIGNED_LABEL": "inactive"
  },
  {
    "COMPOUND": "COc1cc(O)c(/C=N/N=C(\\N)NO)c(OC)c1",
    "ASSIGNED_LABEL": "inactive"
  }
]

State the result this test recorded for CCSc1nn(-c2c3ccccc3nc3ccccc23)c(=S)s1 . inactive

Do the same for CCOC(=O)c1c(N2CCCC2)[nH]c(=O)c(C(c2ccc(OC)cc2)c2c(O)c(C(=O)OCC)c(N3CCCC3)[nH]c2=O)c1O please inactive

Do the same for O=C1NC(=O)C(COCc2ccccc2)C2=C1SCCC2 (stereo unspecified) please inactive

Do the same for COc1cc(CNC2=NCCC2)cc(OC)c1OC please inactive

Do the same for O=C1c2cc(Cl)ccc2-n2cnnc2C2CSCN12 (stereo unspecified) please inactive

Do the same for CCOC(=O)/C1=C(\C)N(Cc2ccccc2)C(=O)c2ccccc2C(=O)c2c(O)ccc(O)c21 please active

Do the same for COc1ccc(/C(C#N)=C/c2ccc(OC)c(OC)c2)cc1 please inactive

Do the same for N#CC(Cc1ccccc1Br)N(CCC1=CCCCC1)C(c1ccccc1)c1ccccc1 (stereo unspecified) please inactive

Do the same for COC[C@@H](/N=C/C(C)(C)C)C(C)C please inactive

###

tested on: NCI-H226; experiment: NCI tumour cell line growth inhibition, 48 h
The source made the active and inactive calls. Cut-off read from the data, not from the text of the source: active = GI50 up to about 1.1 µM and inactive = higher. Non-standard residues stand in square brackets, D forms with d. Residues, ends and D or L forms follow the SMILES beside them. Ava = NCCCCC(=O)O; Mpa = O=C(O)CCS
OBSERVED_PROPERTY: GI50

[
  {
    "COMPOUND": "N=C(N)N/N=C/c1c(-c2cccc([N+](=O)[O-])c2)nc2n1CCS2",
    "RESULT": "20.3 µM (inactive)"
  },
  {
    "COMPOUND": "CC1=C2C3=C(C)C(=O)C(C)(C)CC[C@@]3(C)[C@]2(C)CCC(C)(C)C1=O",
    "RESULT": "> 100 µM (inactive)"
  },
  {
    "COMPOUND": "CC(=O)Oc1ccccc1C(=O)Nc1ncc([N+](=O)[O-])s1 [NITAZOXANIDE]",
    "RESULT": "8.83 µM (inactive)"
  },
  {
    "COMPOUND": "c1ccc(C(NC2=NCCO2)c2ccccc2)cc1",
    "RESULT": "> 10 µM (inactive)"
  },
  {
    "COMPOUND": "CC(NC(=O)CCS)C(=O)NC(C)C(=O)NC(Cc1c[nH]c2ccccc12)C(=O)NC(Cc1c[nH]cn1)C(=O)NC(CO)C(=O)NC(Cc1c[nH]c2ccccc12)C(=O)NCCCCC(=O)NC(C)C(=O)NC(CCC(N)=O)C(=O)NC(CCCCN)C(=O)NC(C)C(=O)NC(CCCNC(=N)N)C(=O)NC(CCCCN)C(N)=O (configuration not stated) ([Mpa]AAWHSW[Ava]AQKARK-NH2; configuration not given here)",
    "RESULT": "> 100 µM (inactive)"
  }
]

Entry CN(CCCN(C)CCc1ccc(Cl)c(Cl)c1)CCCN1CCCC1 , system NCI-H226: what GI50 was measured? 2.56 µM (inactive)

Do the same for O=S(=O)(O)c1c(Cl)c(Cl)c(O)c2ncccc12 please 20.9 µM (inactive)

Provenance of the data: ChEMBL document CHEMBL1201862
